tested on: Mus musculus; assay: Compound was evaluated for the antimalarial activity against Plasmodium berghei in mice (Mus musculus) at the dose 20 (mg/kg) administered subcutaneously; format: functional
Please provide measured Delta MST for the entries that follow.
Give bare numbers, in days.

Reference set, count: 2
CCCCN(CCCC)CC(O)c1cc(/C=C/c2ccc(C(F)(F)F)cc2)nc(/C=C/c2ccc(C(F)(F)F)cc2)c1 (stereo not given) ... 0.2
CCCCNCC(O)c1cc(-c2ccc(Cl)cc2)cc(-c2ccc(Cl)cc2)c1 (stereo not given) ... 0.5

Need Delta MST for each of these compounds.
1. CCCCN(CCCC)CC(O)c1cc(-c2ccc(Cl)cc2)cc(-c2ccc(Cl)cc2)c1 (stereo not given)
2. CCCCN(CCCC)CC(O)c1cc(-c2ccc(Cl)cc2)nc(-c2ccc(Cl)cc2)c1 (stereo not given)
3. CCCCN(CCCC)CC(O)c1cc(/C=C/c2ccc(C(F)(F)F)cc2)cc(/C=C/c2ccc(C(F)(F)F)cc2)c1 (stereo not given)

OUTPUT:
1: 0.3; 2: 2.3; 3: 0.5
